- ASSAYED_TARGET: Ba/F3 cells with EGFR exon 20 NPG Ins D770_N771 (Homo sapiens, UniProt P00533, INS770NPG)
- Sequence (P00533 with tags, fused parts or gaps INS770NPG): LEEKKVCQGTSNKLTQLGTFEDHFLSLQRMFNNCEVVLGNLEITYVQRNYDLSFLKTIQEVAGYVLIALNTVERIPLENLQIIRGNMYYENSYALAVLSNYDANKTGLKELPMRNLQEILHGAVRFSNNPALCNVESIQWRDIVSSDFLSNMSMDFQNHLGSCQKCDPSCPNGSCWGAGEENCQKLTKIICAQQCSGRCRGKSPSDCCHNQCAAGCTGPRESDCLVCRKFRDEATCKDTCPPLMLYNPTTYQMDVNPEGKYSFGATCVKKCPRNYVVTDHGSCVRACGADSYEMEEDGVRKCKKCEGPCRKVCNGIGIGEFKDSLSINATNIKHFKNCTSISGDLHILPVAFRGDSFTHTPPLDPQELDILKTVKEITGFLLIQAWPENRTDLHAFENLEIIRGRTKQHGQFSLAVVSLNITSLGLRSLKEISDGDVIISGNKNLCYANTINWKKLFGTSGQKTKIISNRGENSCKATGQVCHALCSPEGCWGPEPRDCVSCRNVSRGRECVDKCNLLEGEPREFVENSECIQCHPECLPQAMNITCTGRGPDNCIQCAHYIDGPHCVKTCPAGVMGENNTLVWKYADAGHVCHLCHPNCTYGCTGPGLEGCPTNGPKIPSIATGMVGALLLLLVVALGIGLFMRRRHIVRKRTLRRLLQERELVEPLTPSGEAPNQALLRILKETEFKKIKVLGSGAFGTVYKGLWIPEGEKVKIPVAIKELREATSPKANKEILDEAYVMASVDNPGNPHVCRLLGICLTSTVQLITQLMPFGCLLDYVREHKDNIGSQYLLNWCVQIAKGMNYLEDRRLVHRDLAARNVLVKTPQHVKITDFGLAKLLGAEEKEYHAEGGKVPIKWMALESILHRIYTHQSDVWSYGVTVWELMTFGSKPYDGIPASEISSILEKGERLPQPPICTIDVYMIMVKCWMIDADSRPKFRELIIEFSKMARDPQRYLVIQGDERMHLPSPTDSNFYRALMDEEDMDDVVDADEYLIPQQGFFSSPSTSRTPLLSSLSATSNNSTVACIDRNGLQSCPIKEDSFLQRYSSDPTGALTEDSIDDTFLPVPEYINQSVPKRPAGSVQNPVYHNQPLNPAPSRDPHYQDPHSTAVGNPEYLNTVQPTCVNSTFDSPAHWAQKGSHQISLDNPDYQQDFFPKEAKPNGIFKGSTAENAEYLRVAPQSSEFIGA
- ASSAY_EXPLANATION: EGFR activity: Ba/F3 cell viability (CellTiter-Glo, 72 h), EGFR exon 20 NPG insertion
- PROTOCOL_CONDITIONS: EGFR exon 20 NPG Ins D770_N771, cell viability, read-out: BaF3 NPG IC50
pIC50: −log10 of the molar value.
READOUT: pIC50

[Q] Fill in: pIC50 of COc1c(F)cccc1Nc1c(-c2ccncc2OCCOC2CC2)[nH]c2c1C(=O)NCC2 is ___
[A] < 6.00

[Q] Name the reported pIC50 value associated with the molecule C=CC(=O)NC1(C#Cc2cnccc2-c2[nH]c3c(c2Nc2cccc(F)c2OC)C(=O)NCC3)CC(F)(F)C1
[A] > 7.00

[Q] Which value of pIC50 has been reported for C=CC(=O)N1CCC[C@]1(C)C#Cc1cnccc1-c1[nH]c2c(c1Nc1cccc(F)c1CC)C(=O)NCC2 in the records?
[A] > 7.00

[Q] Tell me the measured pIC50 of CC#CC(=O)N1CC[C@@H]1COc1cnccc1-c1[nH]c2c(c1Nc1cc(F)cc(F)c1OC)C(=O)NCC2 , please.
[A] > 7.00

[Q] Item under review: C=CC(=O)N1CCN(C)C[C@H]1COc1cnccc1-c1[nH]c2c(c1Nc1cccc(F)c1OC)C(=O)NCC2 . Reported pIC50?
[A] > 7.00

[Q] Please give the measured pIC50 for this molecule: COc1c(F)cccc1Nc1c(-c2ccncc2OCc2ccncn2)[nH]c2c1C(=O)NCC2
[A] > 7.00

[Q] Field request: pIC50 | item: COc1c(F)cccc1Nc1c(-c2ccncc2OCn2nnc3ccccc32)[nH]c2c1C(=O)NCC2
[A] < 6.00

* * *

- ASSAYED_TARGET: Ba/F3 cells with EGFR exon 20 NPG Ins D770_N771 (Homo sapiens, UniProt P00533, INS770NPG)
- ASSAY_EXPLANATION: EGFR activity: Ba/F3 cell viability (CellTiter-Glo, 72 h), EGFR exon 20 NPG insertion
- PROTOCOL_CONDITIONS: EGFR exon 20 NPG Ins D770_N771, cell viability, read-out: BaF3 NPG IC50
READOUT: IC50

[Q] Requested read-out: IC50. Entry: CC#CC(=O)N1CC[C@@H]1COc1cnccc1-c1[nH]c2c(c1Nc1cc(F)cc(Cl)c1OC)C(=O)NCC2
[A] < 100 nM

[Q] # IC50 lookup, item C=CC(=O)N1CCOC[C@]1(C)C#Cc1cnccc1-c1[nH]c2c(c1Nc1cccc(F)c1OC)C(=O)NCC2
[A] < 100 nM

[Q] What does the data say about its IC50? Entry: C=CC(=O)NC(C)(C)C#Cc1cnccc1-c1[nH]c2c(c1Nc1cc(F)cc(Cl)c1OC)C(=O)NCC2
[A] < 100 nM

[Q] Given the compound CC#CC(=O)N1CC[C@@H]1COc1cnccc1-c1[nH]c2c(c1Nc1cccc(Cl)c1OC)C(=O)NCC2 , what is its reported IC50?
[A] < 100 nM

[Q] Fill in the blank: the reported IC50 of COc1c(F)cccc1Nc1c(-c2ccncc2C#C[C@@]2(C)CCCN2C(=O)/C=C/CN2CCOCC2)[nH]c2c1C(=O)NCC2 is ____.
[A] 100 to 1000 nM

[Q] I am curious: what IC50 value has been reported for COc1cccnc1COc1cnccc1-c1[nH]c2c(c1Nc1cccc(F)c1OC)C(=O)NCC2 ?
[A] < 100 nM

[Q] Please report the recorded IC50 for C=CC(=O)N1[C@H](COc2cnccc2-c2[nH]c3c(c2Nc2cccc(Cl)c2OC)C(=O)NCC3)C[C@@H]1C .
[A] < 100 nM
